- target-of-assay: hTRPV3 (Homo sapiens, UniProt Q8NET8)
- Construct: expressed in transfected cells; host or cells: HEK-293
- Sequence (Q8NET8 whole entry): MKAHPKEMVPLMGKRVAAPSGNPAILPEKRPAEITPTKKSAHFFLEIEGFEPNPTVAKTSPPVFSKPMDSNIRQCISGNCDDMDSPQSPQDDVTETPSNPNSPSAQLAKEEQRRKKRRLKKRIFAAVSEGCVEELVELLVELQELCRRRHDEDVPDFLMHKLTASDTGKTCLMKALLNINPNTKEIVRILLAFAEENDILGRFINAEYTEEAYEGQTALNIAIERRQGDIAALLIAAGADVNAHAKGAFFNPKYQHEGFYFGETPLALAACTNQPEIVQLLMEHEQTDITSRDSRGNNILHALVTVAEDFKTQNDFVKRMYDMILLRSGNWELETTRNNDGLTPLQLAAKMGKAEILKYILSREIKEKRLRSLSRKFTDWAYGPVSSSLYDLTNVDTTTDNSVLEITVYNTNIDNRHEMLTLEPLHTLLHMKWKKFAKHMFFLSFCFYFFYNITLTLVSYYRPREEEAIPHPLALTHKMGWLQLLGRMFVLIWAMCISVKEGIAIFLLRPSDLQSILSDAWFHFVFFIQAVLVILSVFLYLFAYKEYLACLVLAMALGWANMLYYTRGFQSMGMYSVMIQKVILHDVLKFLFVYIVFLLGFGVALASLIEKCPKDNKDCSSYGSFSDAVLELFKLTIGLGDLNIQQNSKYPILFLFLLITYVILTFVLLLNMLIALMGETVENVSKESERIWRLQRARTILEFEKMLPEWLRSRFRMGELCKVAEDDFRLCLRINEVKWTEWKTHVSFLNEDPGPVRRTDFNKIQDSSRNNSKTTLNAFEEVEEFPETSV
- run-description: Whole cell patch clamp of TRPV3 current in HEK-293 cells instantaneously expressing TRPV3
- Assay type: cell-based
- condition-set: HEK293; single concentration 0.3 μM, patch clamp; read-out: Inhibition rate on hTRPV3
Consider the following molecules and their measured inhibition at 0.3 µM readings.
Could you give me the number in %? Just the number is fine.

Answered examples (3):
>>> endpoint_result("CC(C)c1ccccc1-c1ccc(N2CC[C@H](S(=O)(=O)c3ccc(Cl)cn3)C2)c(CO)c1 [Example 2]")
18.6
>>> endpoint_result("[O-][S+](c1ccc(Cl)cn1)[C@H]1CCN(c2ccc(-c3ccccc3C3CC3)cc2CO)C1 (stereo partly shown) [Example 6]")
4.73
>>> endpoint_result("OCc1cc(-c2ccccc2C2CC2)ccc1N1CC[C@H](Sc2ccc(Cl)cn2)C1 [Example 4]")
72.8

Then there is this molecule:
# inhibition at 0.3 µM of CC(C)c1ccccc1-c1ccc(N2CC[C@H](Sc3ccc(Cl)cn3)C2)c(CO)c1 [Example 1] = 71.6

----------
Consider the following compounds and their measured inhibition at 0.3 µM readings.
- target-of-assay: hTRPV3 (Homo sapiens)
- Construct: expressed in transfected cells; host or cells: HEK-293
- run-description: Whole cell patch clamp of TRPV3 current in HEK-293 cells instantaneously expressing TRPV3
- Format: cell-based
- condition-set: HEK293; single concentration 0.3 μM, patch clamp; read-out: Inhibition rate on hTRPV3
Record the result as number plus unit.

>>> endpoint_result("CC(C)c1ccccc1-c1ccc(N2CC[C@H]([S+]([O-])c3ccc(Cl)cn3)C2)c(CO)c1 (stereo partly shown)")
"9.96%"
>>> endpoint_result("CC(C)c1ccccc1-c1ccc(N2CC[C@H](Sc3ccc(C(F)(F)F)cn3)C2)c(CO)c1")
"38%"
>>> endpoint_result("OCc1cc(-c2ccccc2C2CC2)ccc1N1CC[C@H](Sc2ccc(F)cn2)C1")
"97.8%"

Alright, here's another compound for you.
Query O=S(=O)(c1ccc(Cl)cn1)[C@H]1CCN(c2ccc(-c3ccccc3C3CC3)cc2CO)C1 on hTRPV3 (Homo sapiens); inhibition at 0.3 µM returned: 23.1%
